Target: T1, monkey SEMA4D, full length, on CHO-K1 cells (CHO-K1 cSEMA4D) (monkey)
T1 construct: whole, on cells; also called monkey SEMA4D recombinant cells
Assay: FACS, CHO-K1 cSEMA4D cells; Ab 2.67 nM
Reported MFI values follow for various binders
Could you respond with only the numeric value?

Here's what some known entries look like.
Binder	MFI
42B7G2 (antibody, V domains shown, Mouse monoclonal antibody purified from hybridoma supernatant on protein A) VH: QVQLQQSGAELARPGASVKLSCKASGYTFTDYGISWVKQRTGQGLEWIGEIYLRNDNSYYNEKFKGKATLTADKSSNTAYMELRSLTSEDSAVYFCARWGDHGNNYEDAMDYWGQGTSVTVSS VL: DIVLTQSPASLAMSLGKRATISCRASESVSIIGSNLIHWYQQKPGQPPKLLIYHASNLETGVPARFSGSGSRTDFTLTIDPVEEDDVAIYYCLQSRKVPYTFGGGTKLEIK	2640
32C8F10 (antibody, V domains shown, Mouse monoclonal antibody purified from hybridoma supernatant on protein A) VH: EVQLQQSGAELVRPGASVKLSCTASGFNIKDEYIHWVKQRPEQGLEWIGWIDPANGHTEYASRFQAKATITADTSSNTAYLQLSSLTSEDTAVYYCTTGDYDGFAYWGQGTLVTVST VL: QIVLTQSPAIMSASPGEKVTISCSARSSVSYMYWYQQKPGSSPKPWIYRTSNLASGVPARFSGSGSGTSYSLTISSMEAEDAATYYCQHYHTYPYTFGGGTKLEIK	4920

Q: Using known records, supply MFI for 38H2E3 (antibody, V domains shown, Mouse monoclonal antibody purified from hybridoma supernatant on protein A) VH: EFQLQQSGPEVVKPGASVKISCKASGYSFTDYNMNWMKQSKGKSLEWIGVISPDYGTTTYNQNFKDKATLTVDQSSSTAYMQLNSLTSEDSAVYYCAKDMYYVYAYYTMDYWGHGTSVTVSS VL: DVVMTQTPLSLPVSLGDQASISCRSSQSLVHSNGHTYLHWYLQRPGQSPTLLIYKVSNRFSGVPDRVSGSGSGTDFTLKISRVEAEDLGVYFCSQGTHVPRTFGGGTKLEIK
Result: 1750
